# maps each entry to its inhibition
measured on: Cytochrome P450 2C9 (Homo sapiens) (UniProt P11712)
Sequence (P11712 whole entry, looked up): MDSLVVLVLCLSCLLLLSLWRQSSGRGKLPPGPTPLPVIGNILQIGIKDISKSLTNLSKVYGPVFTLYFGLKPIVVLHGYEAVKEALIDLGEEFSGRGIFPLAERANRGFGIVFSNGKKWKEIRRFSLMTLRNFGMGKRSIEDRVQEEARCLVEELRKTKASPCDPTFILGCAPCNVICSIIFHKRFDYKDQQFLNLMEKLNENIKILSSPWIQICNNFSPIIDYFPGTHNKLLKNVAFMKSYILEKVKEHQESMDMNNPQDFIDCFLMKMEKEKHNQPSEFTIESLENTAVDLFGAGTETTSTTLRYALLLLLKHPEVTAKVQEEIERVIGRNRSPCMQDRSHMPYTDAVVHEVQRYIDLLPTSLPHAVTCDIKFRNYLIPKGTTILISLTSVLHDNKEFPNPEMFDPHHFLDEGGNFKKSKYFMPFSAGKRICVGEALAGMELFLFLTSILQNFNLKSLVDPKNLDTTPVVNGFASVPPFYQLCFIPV
assay text: blockers of cytochrome P450 2C9 activity – biochemical, luminescence, ADME assay, primary screen (AID 777)
condition label: CYP2C9 Supersomes, luciferin-H conversion, at 5 µM, hits give high values
Hit rate of the full screen: of about 96,000 compounds, about 19,000 (20%) were called active. Only a sample is shown.
Reply numerically in %, unit not repeated.

Examples from the recorded data:
compound="CCOc1ccc2nc(SC(CC)C(=O)Nc3cc(C)on3)sc2c1 (stereo unspecified)" quantity_measured=inhibition reported_value=-4.1
compound="COc1ccc(SCc2noc(C(=O)NCC3CCCO3)c2C(=O)O)cc1 (stereo unspecified)" quantity_measured=inhibition reported_value=20.1
compound=CCOc1cccc(SCc2noc(C(=O)NC(C)C)c2C(=O)O)c1 quantity_measured=inhibition reported_value=73.7
compound=CCOC(=O)c1sc(N(Cc2ccccc2)C(=O)CN2C(=O)CN(C)C2=O)nc1C quantity_measured=inhibition reported_value=57.9
compound=CCOC(=O)c1sc2nc(SC)nc(-c3ccccc3)c2c1N quantity_measured=inhibition reported_value=13.3

The record that follows has no inhibition shown yet.
Q: # inhibition lookup, item `Cc1cccc(C)c1NC(=O)N1CC=C(n2c(=O)[nH]c3ccccc32)CC1`
Result: -1

###

measured on: Cytochrome P450 2C9 (Homo sapiens)
assay text: blockers of cytochrome P450 2C9 activity – biochemical, luminescence, ADME assay, primary screen (AID 777)
condition label: CYP2C9 Supersomes, luciferin-H conversion, at 5 µM, hits give high values
The whole screen tested about 96,000 compounds, of which about 19,000 (20%) were called active. These entries were drawn from the full list.
inhibition values for the molecules below.
Only the number, expressed in %, is required.

These solved cases illustrate the format of a correct answer.
molecule=O=C(CN1C(=O)c2ccccc2S1(=O)=O)N1CCc2ccccc21 reported_value=-5.2
molecule=CCOC(=O)N1CCC(Nc2c(NCCN3CCN(c4cccc(Cl)c4)CC3)c(=O)c2=O)CC1 reported_value=0.8
molecule=Cn1nc([N+](=O)[O-])nc1Sc1ccc(C(C)(C)C)cc1 reported_value=12.1

From here, focus on the item given below.
Q: Lab note: need inhibition with Cytochrome P450 2C9 (Homo sapiens) for entry `O=C(CCN1C(=O)COc2ccccc21)NCCCN1CCN(c2ccc(F)cc2)CC1` , please look it up.
Result: 3.9

###

measured on: Cytochrome P450 2C9 (Homo sapiens) (UniProt P11712)
assay text: blockers of cytochrome P450 2C9 activity – biochemical, luminescence, ADME assay, primary screen (AID 777)
condition label: CYP2C9 Supersomes, luciferin-H conversion, at 5 µM, hits give high values
Hit rate of the full screen: of about 96,000 compounds, about 19,000 (20%) were called active. These entries were drawn from the full list.
inhibition by entry:
Please respond with the number in % and leave the unit unwritten.

Use the examples below as a reference point.
compound=Cn1c(=O)n(C)c2cc(S(=O)(=O)N3CCCc4ccccc43)ccc21 quantity_measured=inhibition reported_value=66.5
compound=Cc1cc(=O)oc(C)c1C(=O)NCc1ccc(F)cc1 quantity_measured=inhibition reported_value=51.6
compound=CCn1c(=O)c(=O)n(CC)c2cc(S(=O)(=O)N3CCc4ccccc43)ccc21 quantity_measured=inhibition reported_value=96.5
compound=N#CCCN1CCN(S(=O)(=O)c2ccc(S(=O)(=O)N3CCCC3)cc2)CC1 quantity_measured=inhibition reported_value=16.2
compound=COc1ccc(C(=O)OCC(=O)NCC2CCCCC2)cc1S(=O)(=O)N1CCCc2ccccc21 quantity_measured=inhibition reported_value=9.6

Shifting focus to the compound that follows.
Q: Give its inhibition value. Item: `COC(=O)Cn1c2ccc(C)cc2c2nc(C)sc21`
Result: 22.4
